- procedureText: chemical genetic growth profiling, strain panel (AID 1159580);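 further: tested at 20 µM; growth read once vehicle control cultures reached saturation at 30 °C; 1 = growth at the plate median or of vehicle wells; lower values mean less growth of the strain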
- experimentalSetup: S. cerevisiae deletion strains, growth OD, locus YDR069C, strain doa4, active compounds read low
Out of some 5,500 compounds screened, about 2,000 (36%) were called active. Another 18% or so got no clear call; they are omitted. The list shows a part of the results.
measuredProperty: normalized growth
Enter a number only.

Query: For COc1cc2c(cc1OC)C(=O)C(CC1CCN(Cc3ccccc3)CC1)C2 (stereo unspecified) , write its normalized growth.
Reply: 0.935

Query: Quickly give me recorded normalized growth for CC(C)[C@H](N)C(=O)OCCOCn1cnc2c(=O)[nH]c(N)nc21
Reply: 1

Query: Output normalized growth of CCCCOc1ccc(C(=O)CCN2CCCCC2)cc1
Reply: 0.898

Query: Give me measured normalized growth, please, for this compound: CC(C)(C)CC(C)(C)c1ccc(OCCOCC[N+](C)(C)Cc2ccccc2)cc1
Reply: 0.0664

Query: Input NCC1CCCCC1CC(=O)O (stereo unspecified) , output reported normalized growth.
Reply: 1.05

Query: Give normalized growth for the following compound: OC(CCN1CCCCC1)(c1ccccc1)c1ccccc1
Reply: 0.997

Query: Read off the recorded normalized growth for CO[C@H]1C[C@H](O[C@H]2[C@H](C)[C@@H](OC3O[C@H](C)C[C@H](N(C)C)[C@H]3O)[C@@H](C)C[C@]3(CO3)C(=O)[C@H](C)[C@@H](O)[C@@H](C)[C@@H](C)OC(=O)[C@@H]2C)O[C@@H](C)[C@@H]1O (stereo partly specified)
Reply: 1.03

Query: Give the reported normalized growth for this compound. CC1(C)S[C@@H]2[C@H](NC(=O)[C@H](NC(=O)N3CCNC3=O)c3ccccc3)C(=O)N2C1C(=O)O (stereo partly specified)
Reply: 0.988

Query: Find the measured normalized growth of COc1ccc(-c2cc(=O)c3c(O)cc(OC)c(OC)c3o2)c(OC)c1 and report it.
Reply: 0.97

Query: Supply measured normalized growth of CCCCCCCCCCCCC[N+](C)(C)Cc1ccccc1 in your reply.
Reply: 0.0672

Query: Answer with the recorded normalized growth of C=CC1=C(C(=O)O)N2C(=O)[C@@H](NC(=O)/C(=N/O)c3csc(N)n3)[C@H]2SC1 only.
Reply: 1.04

Query: Input CC(C)N(C(=O)CCl)c1ccccc1 , output reported normalized growth.
Reply: 0.979

Query: Answer with the recorded normalized growth of COc1ccc2cc1Oc1ccc(cc1)C[C@H]1c3c(cc4c(c3Oc3cc5c(cc3OC)CCN(C)[C@@H]5C2)OCO4)CCN1C only.
Reply: 0.979

Query: Provide one value: measured normalized growth of CCCCOc1ccc(CC(=O)NO)cc1
Reply: 1

Query: Tell me normalized growth reported for CC(C)=CCc1c(O)cc2oc(C)cc(=O)c2c1O
Reply: 1

Query: Identify measured normalized growth corresponding to CCN(CC)C(=S)SSC(=S)N(CC)CC
Reply: 0.0647

Query: Hello, please tell me recorded normalized growth for this one: c1ccc(CN(CC2=NCCN2)c2ccccc2)cc1
Reply: 1.02

Query: Return reported normalized growth. Input compound: CCCCOc1ccc(OCCCN2CCOCC2)cc1
Reply: 0.883

Query: Give a short answer stating reported normalized growth for O=C(O)C1CC([C@@H]2CCCCN2)CN2CCCCC12 (stereo partly specified) .
Reply: 0.97

Query: Given the compound Cc1ccc(O)cc1 , write its reported normalized growth.
Reply: 1.04

Query: Complete the entry with normalized growth for CC(C)CC1C(=O)N2CCC[C@H]2C2(O)O[C@](NC(=O)C3C=C4c5cccc6[nH]c(Br)c(c56)C[C@H]4N(C)C3)(C(C)C)C(=O)N12 (stereo partly specified)
Reply: 0.983
